Measurement Description: Liver microsomal stability
Assay type: in vitro ADME, rat
Condition Parameters: Table 6; rat liver microsomes, 1 h
Text: Liver Microsomal Stability.
Value Type: Microsomal Stability (T = 1 h)

Compound	Value Type	Meas Value
Cc1cc2c(C(=O)NC(C)c3ccc(Cl)cc3)c(O)c(O)cc2c(O)c1-c1c(C)cc2c(C(=O)NC(C)c3ccc(Cl)cc3)c(O)c(O)cc2c1O (stereo not shown)	Microsomal Stability (T = 1 h)	71%
Cc1cc2c(C(=O)NCCc3ccccc3)c(O)c(O)cc2c(O)c1-c1c(C)cc2c(C(=O)NCCc3ccccc3)c(O)c(O)cc2c1O	Microsomal Stability (T = 1 h)	60%
Cc1cc2c(CCc3ccccc3)c(O)c(O)cc2c(O)c1-c1c(C)cc2c(CCc3ccccc3)c(O)c(O)cc2c1O [Compound 12e]	Microsomal Stability (T = 1 h)	89%
Cc1cc2c(C(=O)NCC(C)c3ccccc3)c(O)c(O)cc2c(O)c1-c1c(C)cc2c(C(=O)NCC(C)c3ccccc3)c(O)c(O)cc2c1O (stereo not shown)	Microsomal Stability (T = 1 h)	76%

* * *

pIC50: −log10 of the molar value.
Consider the following pIC50 values measured on Mcl-1 (Homo sapiens).
Sequence (Q07820 whole entry): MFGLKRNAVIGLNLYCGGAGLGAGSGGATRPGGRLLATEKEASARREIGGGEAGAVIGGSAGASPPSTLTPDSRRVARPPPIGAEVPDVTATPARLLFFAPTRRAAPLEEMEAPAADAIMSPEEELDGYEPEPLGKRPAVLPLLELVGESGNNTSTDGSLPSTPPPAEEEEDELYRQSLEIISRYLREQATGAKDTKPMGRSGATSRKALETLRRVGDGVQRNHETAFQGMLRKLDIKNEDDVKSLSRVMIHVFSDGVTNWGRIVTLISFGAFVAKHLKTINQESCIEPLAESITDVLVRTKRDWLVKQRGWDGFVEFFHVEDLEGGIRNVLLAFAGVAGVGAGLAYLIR

Compound	pIC50
Cc1cc2c(C(=O)NCC3CCCCC3)c(O)c(O)cc2c(O)c1-c1c(C)cc2c(C(=O)NCC3CCCCC3)c(O)c(O)cc2c1O	6.11
Cc1cc2c(CCc3ccccc3)c(O)c(O)cc2c(O)c1-c1c(C)cc2c(CCc3ccccc3)c(O)c(O)cc2c1O [Compound 12e]	6.08
Cc1cc(C)c(CNC(=O)c2c(O)c(O)cc3c(O)c(-c4c(C)cc5c(C(=O)NCc6c(C)cc(C)cc6C)c(O)c(O)cc5c4O)c(C)cc23)c(C)c1	5.96
